Source listed as patent US9624241B2.

Measured pIC50 values are reported for all entries that follow.
Target: BRD4-BD2 (Homo sapiens (Human))
Assay: BRD4 AlphaScreen Assay (Example A2), BRD4-BD2
Format: binding
Settings: Assay A2, AlphaScreen, BRD4-BD2; read-out: BRD4 BD-2 enzyme IC50
Experimental: BRD4-BD1 and BRD4-BD2 assays were conducted in white 384-well polystyrene plate in a final volume of 40 μL for BD1 and 60 μL for BD2. Inhibitors were first serially diluted in DMSO and added to the plate wells before the addition of other reaction components. […] After plate sealing, the plate was incubated in the dark at room temperature for 75 min. before reading on a PHERAstar FS plate reader (BMG Labtech). […]
pIC50: −log10 of the molar value. Where a name gives a salt, the structure may show the parent alone.

In the examples that follow, each entry is paired with its recorded pIC50.
**Query** So what's the measured pIC50 for this one? Cc1cnn(C)c1-c1ccc2[nH]c(=O)n3c2c1OCC3c1ccccn1 (centres unmarked) [Example 44]
**Result** 6.00 to 7.00

**Query** // repeat for CC(=O)N1CCC(c2nc3ccc(-c4c(C)noc4C)c4c3n2[C@@H](c2ccccn2)CO4)CC1 [Example 109] and report
**Result** > 7.00

Further cases:
**Query** So what's the measured pIC50 for this one? Cc1noc(C)c1-c1ccc2[nH]c(=O)n3c2c1OCC3c1cccnc1C(=O)NC1CC1 (single isomer, unassigned) [Example 134]
**Result** > 7.00

**Query** // repeat for Cc1noc(C)c1-c1ccc2[nH]c(=O)n3c2c1OCC3c1cccnc1C#N (racemic) [Example 126] and report
**Result** > 7.00

**Query** // repeat for CNC(=O)c1nc2ccc(-c3c(C)noc3C)c3c2n1[C@@H](c1ccccn1)CO3 [Example 95] and report
**Result** > 7.00

**Query** // repeat for Cc1noc(CF)c1-c1ccc2[nH]c(=O)n3c2c1OCC3c1ccccn1 (centres unmarked) [Example 125, trifluoroacetate] and report
**Result** > 7.00

**Query** // repeat for Cc1noc(C)c1-c1ccc2[nH]c(=O)n3c2c1OCC3C1CCCCN1C(=O)NC(C)C (centres unmarked) [Example 80] and report
**Result** 5.00 to 6.00

**Query** // repeat for Cc1noc(C)c1-c1ccc2nc(N3CC[C@@H](NC(=O)N4CCOCC4)C3)n3c2c1OC[C@@H]3c1ccccn1 [Example 153] and report
**Result** > 7.00
